Values from patent US20210380702A1

Target: T1, recombinant cynomolgus monkey PD-L1 with a C-terminal mouse IgG2a Fc tag (cynomolgus monkey (Macaca fascicularis))
T1 construct: also called MfPD-L1-mFc; monkey PD-L1-mFc
T1 sequence (chain, as listed by the source limits assumed): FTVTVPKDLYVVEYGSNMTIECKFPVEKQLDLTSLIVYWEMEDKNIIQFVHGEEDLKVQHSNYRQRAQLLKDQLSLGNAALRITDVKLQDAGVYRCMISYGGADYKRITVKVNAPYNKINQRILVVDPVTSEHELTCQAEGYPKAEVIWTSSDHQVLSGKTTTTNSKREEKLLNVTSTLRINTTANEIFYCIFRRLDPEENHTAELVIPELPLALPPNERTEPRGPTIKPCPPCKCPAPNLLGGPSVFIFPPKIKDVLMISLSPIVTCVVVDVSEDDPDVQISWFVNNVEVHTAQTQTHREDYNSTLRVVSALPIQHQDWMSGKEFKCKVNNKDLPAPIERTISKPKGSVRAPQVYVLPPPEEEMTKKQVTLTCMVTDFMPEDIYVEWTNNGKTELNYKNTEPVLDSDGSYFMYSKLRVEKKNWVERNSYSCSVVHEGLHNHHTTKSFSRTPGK
Assay: SPR (Biacore), mAb captured, 25C
Protocol: Binding association and dissociation rate constants (kₐ and kd, respectively), equilibrium dissociation constants and dissociation half-lives (KD and t_{1/2}, respectively) of antigen binding to purified anti-PD-L1 monoclonal antibodies were determined using a real-time surface plasmon resonance biosensor assay on a Biacore 4000 instrument. […]
readout_kind: t1/2 (h)

• H1H9336P (antibody, human IgG1, V domains shown) VH: EVQLVESGGGLVQPGRSLRLSCAASGFTFDDFAMHWVRQAPGKGLEWVSGISWTGGNMDYANSVKGRFTISREDAKNSLYLQMNSLRAADTALYYCVKDIRGIVATGGAFDIWGRGTMVTVSS VL: DIQMTQSPSSLSASVGDRVTISCRASQTISTYLNWFQQKPGKAPKLLIYVVSSLQSGVPSRFSGSGSGTDFTLTISSLQPEDFATYYCQQSYSTPFTFGPGTKVDIK = 3.13
• H1H8323N (antibody, human IgG1, V domains shown) VH: QVQLVQSGAEVKMPGSSVRVSCKASGGIFSSSTISWVRQAPGQGLEWMGEIIPVFGTVNYAQKFQDRVIFTADESTTTAYMELSSLKSGDTAVYFCARNWGLGSFYIWGQGTMVTVSS VL: EIVLTQSPGTLSLSPGERATLSCRASQSFNFNYLAWYQQKPGQAPRLLIYGASSRATGIPDRFSGSGSGTDFTLTINRLEPEDFGVFYCQQYESAPWTFGQGTKVEIK = 3.13
• H1H8314N (antibody, human IgG1, V domains shown) VH: EVQLVESGGGVVRPGGSLRLSCAASGFTFDDYGMTWVRQAPGRGLEWVSGIHWHGKRTGYADSVKGRFTISRDNAKKSLYLQMNSLKGEDTALYHCVRGGMSTGDWFDPWGQGTLVIVSS VL: DIQMTQSPSSLSASLGDRVTITCRASQSINSYLNWYQQKPGKAPKLLIYVASSLQSGVPSRFSGSGSGTEFTLTISNLQPEDFATYYCQQSYSTPPITFGQGTRLEIK = 2.85
• H1H9329P (antibody, human IgG1, V domains shown) VH: EVQLVESGGGLVQSGGSLRLSCAASGFTFSSYWMSWVRQAPGKGLEWVANIKQDGSEKYYVDSVKGRFTISRDNAKNSLYLQMNSLRADDTAVYYCARDDIVVVPAPMGYYYYYFGMDVWGQGTTVTVSS VL: DIQMTQSPSSLSASVGDRVTITCRASQGIRNDLGWYQQKPGKAPKRLIYAASSLQSGVPSRFSGSGSGTEFTLTISSLQPEDFATYYCLQHNSYPYTFGQGTKLEIK = 0.283
